Target: NRAS G12C (Homo sapiens, UniProt P01111+P62937, G12C)
Construct: His6
Sequence (P01111 whole entry G12C): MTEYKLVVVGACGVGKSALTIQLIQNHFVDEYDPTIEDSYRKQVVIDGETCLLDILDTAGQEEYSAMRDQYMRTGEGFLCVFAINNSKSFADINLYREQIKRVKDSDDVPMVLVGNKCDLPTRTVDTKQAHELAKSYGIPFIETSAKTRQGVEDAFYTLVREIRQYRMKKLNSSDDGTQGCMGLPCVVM
Sequence (P62937 whole entry): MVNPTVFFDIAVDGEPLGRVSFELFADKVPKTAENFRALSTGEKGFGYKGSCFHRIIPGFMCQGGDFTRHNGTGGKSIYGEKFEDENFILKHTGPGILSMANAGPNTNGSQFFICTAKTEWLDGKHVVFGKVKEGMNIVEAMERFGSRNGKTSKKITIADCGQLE
Assay: Ras-Raf disruption/FRET/MOA assay, NRAS G12C
Format: biochemical
Conditions: NRAS G12C; read-out: NRAS G12C FRET data IC50
Source text: Disruption of B-Raf Ras-Binding Domain (BRAF^RBD) Interaction with K-Ras by Compounds of the Invention (Also Called a FRET Assay or an MOA Assay) Note—The following protocol describes a procedure for monitoring disruption of K-Ras G12C (GMP-PNP) binding to BRAF^RBD by a compound of the invention. This protocol may also be executed substituting other Ras proteins or nucleotides, such as K-Ras G12D and K-Ras G13D. […]
READOUT LABEL: IC50

GIVEN SMILES | MEASUREMENT TARGET | OBS VALUE
CCn1c(-c2cccnc2[C@H](C)OC)c2c3cc(ccc31)-c1csc(n1)C[C@H](NC(=O)[C@H](C1CCCC1)N1CC[C@]3(CCN(C(=O)[C@@H]4N[C@@H]4C4CC4)C3)C1=O)C(=O)N1CCC[C@H](N1)C(=O)OCC(C)(C)C2 | NRAS G12C (Homo sapiens, UniProt P01111+P62937, G12C) | 1000 to 10000 nM
CCn1c(-c2cccnc2[C@H](C)OC)c2c3cc(ccc31)-c1cc(O)cc(c1)C[C@H](NC(=O)[C@H](C1CCCC1)N(C)C(=O)[C@H]1CCN(C(=O)[C@H]3CN3)C1)C(=O)N1CCC[C@H](N1)C(=O)OCC(C)(C)C2 | NRAS G12C (Homo sapiens, UniProt P01111+P62937, G12C) | < 10 nM
